# target: T1, Sgt2_TPR (93–229) (S. cerevisiae, UniProt Q12118 93-229)
# T1 construct: Small glutamine-rich tetratricopeptide repeat-containing protein 2 (Sgt2), S. cerevisiae, TPR domain, residues 93-229; 15N-labelled for the NMR titrations; Cloned from synthetic cDNA into the BamHI/XhoI sites of a modified pET28; also called TPR domain of Sgt2; longer construct of Sgt2_TPR; not shown: thioredoxin A, N-terminal, cleaved; His6, N-terminal, cleaved
# T1 sequence (looked up): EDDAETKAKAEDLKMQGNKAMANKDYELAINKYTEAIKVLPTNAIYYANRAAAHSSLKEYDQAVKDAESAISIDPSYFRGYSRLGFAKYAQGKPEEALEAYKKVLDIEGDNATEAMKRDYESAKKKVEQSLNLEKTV
# assay-notes: ITC; 20 injections of 2 uL of 500 uM peptide into 50 uM Sgt2_TPR (93-229) in the cell; 10 mM potassium phosphate pH 6.0, 100 mM NaCl, 250 uM TCEP, 25°C
# experimental-context: both partners purified
measured-metric: Kd (nM)
Give bare numbers, in nM.

Examples from the recorded data:
* MEEVD (Hsp82 (yeast Hsp90), C-terminal residues 705-709; the abstract and discussion call the parent Hsc82; also called C-terminal fragment of Hsp82; Hsc82 C-terminal peptide; source: synthetic peptide, bought: Alpha BioScience (Birmingham, UK)) [MEEVD peptide (C-terminus of Hsp82)] | 2950
* PTVEEVD (Heat shock protein Ssa1 (yeast Hsp70), last seven amino acids; printed as residues 634-640; also called C-terminal peptide of Ssa1; Ssa1 derived PTVEEVD peptide; source: synthetic peptide, bought: Alpha BioScience (Birmingham, UK)) [PTVEEVD peptide (C-terminus of Ssa1)] | 9040

Switching to the query record.
Query block: What value of Kd has been reported for the following binder? SLEEDLNLD (Ybr137wp, yeast, C-terminal residues 171-179; also called Ybr137wp-derived peptide; source: synthetic peptide, bought: Alpha BioScience (Birmingham, UK)) [SLEEDLNLD peptide (C-terminus of Ybr137wp)]
Result block: 1530
